Where do the numbers come from? From PubChem BioAssay (NCATS).

System: Tov112D
Assay: Primary qHTS to identify gynecologic anti-cancer compounds using libraries of approved drugs and bioactive compounds (AID 1345084); further: nearly all actives have a fitted effect of over 55% in size
Conditions: Gynecologic cancer cell panel viability, ATPlite luminescence, 48 h; series mostly up to 57.5 µM
Excerpt: National Center for Advancing Translational Sciences [NCATS] Assay Overview: Chemotherapeutic drug responses vary from cancer to cancer and from patient to patient. […] ATPlite is a luminescence based assay reliant on the conversion of a luciferase substrate to light in the presence of ATP. As a cytotoxic compound will suppress growth and decrease the number of cells, the concentration of ATP will decrease, and less light signal will be detected in the well. […]
Records with an inconclusive call do not appear. Calls of active or inactive are those of the source. The call rests on the fitted dose curve; in most records, active means well fitted cell-killing curve with a large enough effect; inconclusive means small, poorly fitted or top-dose-only effect, or effect the other way; inactive means flat fitted curve, though single readings scatter.
Hello, when you answer, please use one of the following outcomes: YES (active), NO (inactive)

CC1(C)CCC[C@]2(C)[C@H]3CC(=O)O[C@]3(C)CC[C@@H]12 : NO
CC(=O)OC1C[C@@]2(C)[C@@H](CC[C@@H](C)[C@]23Cc2c(O)cc4c(c2O3)CNC4=O)C(C)(C)[C@@H]1O (stereo partly drawn) : NO
FC(F)(F)c1ccc(Nc2nc(-c3c(C(F)(F)F)nc4ccccn34)cs2)cc1 : YES
CC[C@H]1OC(=O)[C@](C)(F)C(=O)[C@H](C)[C@@H](O[C@@H]2O[C@H](C)C[C@H](N(C)C)[C@H]2O)[C@](C)(OC)C[C@@H](C)C(=O)[C@@H](C)[C@H]2N(CCCCn3cc(-c4cccc(N)c4)nn3)C(=O)O[C@]12C : NO
C=C[C@@](C)(O)CC/C=C(\C)C(=O)O[C@@H]1[C@@H]2O[C@]2(C)[C@H]2[C@H](O[C@@H]3O[C@H](CO)[C@@H](O)[C@H](O)[C@H]3O)OC=C[C@@]12O : NO
CCS(=O)(=O)N1CCN(c2ccc(Nc3ncc(C(N)=O)c(NC4CC4)n3)cc2)CC1 : NO
CC1=CCC(C(C)(C)O[C@@H]2O[C@H](CO[C@@H]3O[C@@H](C)[C@H](O)[C@@H](O)[C@H]3O)[C@@H](O)[C@H](O)[C@H]2O)CC1 (stereo partly drawn) : NO
CC(C)O[C@@H]1O[C@H](CO)[C@@H](O)[C@H](O)[C@H]1O : NO

Challenge: # fetch the recorded call for COc1cc(O)cc(C)c1C(=O)OC1C(CO)OC(OC2C(O)C(O)C(O)C(O)C2O)C(O)C1O (stereo not drawn) here
Response given: NO

Challenge: # fetch the recorded call for COc1cc(C(=O)O)ccc1OC1OC(CO)C(O)C(O)C1O (stereo not drawn) here
Response given: NO

Challenge: # fetch the recorded call for CC(C)C(NC(=O)c1ccc2ccccc2n1)C(=O)NC(CC(=O)O)C(=O)COc1c(F)cccc1F (stereo not drawn) here
Response given: NO

Challenge: # fetch the recorded call for CC[C@@H](N)CNc1ccnc(-c2cc(-c3cnn(C)c3)ccc2O)n1 here
Response given: YES

* * *

Test system: CRL-7250
Test: Cytotoxic Profiling of Annotated Libraries Using Quantitative High-Throughput Screening (AID 1296008); further: nearly all actives have a fitted effect of over 60% in size
Details: Five cell lines viability, CellTiter-Glo ATP luminescence, 48-72 h
Inconclusive results are not listed. Activity calls are given as the source filed them. The call rests on the fitted dose curve; in most records, active means well fitted inhibition curve with a large enough effect; inconclusive means small, poorly fitted or top-dose-only effect; inactive means flat fitted curve, though single readings scatter.
Hello, when you answer, please use one of the following outcomes: 1 (yes) for active, 0 (no) for inactive

Would you please look over these solved cases?
C=C[C@]1(C)C=C2CCC3C(C)(CCC[C@@]3(C)C(=O)O)C2CC1 (stereo not given in full) : 0 (no)
CC1(C)C2CC=C(COC3OC(COC4OCC(O)(CO)C4O)C(O)C(O)C3O)C1C2 (stereo not given) : 0 (no)
C[C@H]1Oc2cc(cnc2N)-c2c(nn(C)c2C#N)CN(C)C(=O)c2ccc(F)cc21 : 1 (yes)
Cc1cc(OCc2nnc(SC3CCCC3)n2-c2cccnc2)ccc1-c1ccc(S(C)(=O)=O)cc1 : 1 (yes)

Moving on to another compound below.
Challenge: # fetch the recorded call for CC12CCC(=O)C=C1C(O)CC1C2C(O)CC2(C)C1CC[C@]2(O)C(=O)CO (stereo not given in full) here
Response given: 0 (no)
